Values compiled from the supplement of paper PMC11061612.

test system: Hs-633T (Other Solid Carcinomas); test: Bliss excess, mean over the matrix (fraction); higher = more synergy;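 also: after 72 h of two-drug dosing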
quantity.name: Bliss excess

// known answers, use as guide
# molecule, tested.target, Bliss excess
records = [
    ("CC1(C)CCC(CN2CCN(c3ccc(C(=O)NS(=O)(=O)c4ccc(NCC5CCOCC5)c([N+](=O)[O-])c4)c(Oc4cnc5[nH]ccc5c4)c3)CC2)=C(c2ccc(Cl)cc2)C1 [Venetoclax] + C[C@@H](Nc1cc(F)cc(F)c1)c1cc(C(=O)N(C)C)cc2c(=O)cc(N3CCOCC3)oc12 [AZD8186] (first compound max 1 µM, 7x7, partner max 3 µM)", "Hs-633T (Other Solid Carcinomas)", -0.017),
    ("Cc1c2c(nn1C)CSCc1cc(n(C)n1)CSc1cc(c3ccccc3c1)OCCCc1c(C(=O)O)n(C)c3c-2c(Cl)ccc13 [AZD5991] + CN(C)CCCOc1ccc(-c2ccc3ncc4c(c3c2)n(C2CCOCC2)c(=O)n4C)cn1 [AZD0156] (first compound max 1 µM, 7x7, partner max 1 µM)", "Hs-633T (Other Solid Carcinomas)", 0.0239),
    ("NC1(C(=O)N[C@@H](CCO)c2ccc(Cl)cc2)CCN(c2ncnc3[nH]ccc23)CC1 [Capivasertib] + CC(C)n1c(=O)n(C)c2cnc3cc(F)c(-c4ccc(OCCCN5CCCCC5)nc4)cc3c21 [AZD1390] (first compound max 10 µM, 7x7, partner max 0.3 µM)", "Hs-633T (Other Solid Carcinomas)", -0.0656),
    ("Cc1cc2ncnn2cc1Nc1ncc2c(n1)n(C1CCOCC1)c(=O)n2C [AZD7648] + C=CCn1c(=O)c2cnc(Nc3ccc(N4CCN(C)CC4)cc3)nc2n1-c1cccc(C(C)(C)O)n1 [AZD1775] (first compound max 10 µM, partner max 1 µM)", "Hs-633T (Other Solid Carcinomas)", -0.0333),
    ("C[C@@H](c1ccc2nccn2c1)n1nnc2ncc(-c3cnn(C)c3)nc21 [Savolitinib] + CC1(C)CCC(CN2CCN(c3ccc(C(=O)NS(=O)(=O)c4ccc(NCC5CCOCC5)c([N+](=O)[O-])c4)c(Oc4cnc5[nH]ccc5c4)c3)CC2)=C(c2ccc(Cl)cc2)C1 [Venetoclax] (first compound max 1 µM, 7x7, partner max 1 µM)", "Hs-633T (Other Solid Carcinomas)", -0.0383),
    ("Cn1cnc2c(F)c(Nc3ccc(Br)cc3Cl)c(C(=O)NOCCO)cc21 [Selumetinib] + CC(C)n1c(=O)n(C)c2cnc3cc(F)c(-c4ccc(OCCCN5CCCCC5)nc4)cc3c21 [AZD1390] (first compound max 10 µM, 7x7, partner max 0.3 µM)", "Hs-633T (Other Solid Carcinomas)", 0.0303),
]

Now for another entry.
So for N#Cc1cnc(Nc2cc(NC[C@H]3CNCCO3)c(C(F)(F)F)cn2)cn1 [SRA737] + CCc1c2c(nc3ccc(O)cc13)-c1cc3c(c(=O)n1C2)COC(=O)[C@]3(O)CC [SN-38] (first compound max 10 µM, 7x7, partner max 0.3 µM) , the logged Bliss excess turned out to be -0.0402

----------
tested on: LB771-HNC (Head and Neck Carcinoma); assay: combination Emax (second highest fraction inhibited in the dose matrix, 72 h); higher = more inhibition; extreme values may be limits of the assay
quantity.name: combination Emax
Just the number, please.

Here are 3 compounds together with their reported answers.
# compound, combination Emax
rows = [
    ("CN(CCO)CC[C@H](CSc1ccccc1)Nc1ccc(S(=O)(=O)NC(=O)c2ccc(N3CCC([C@@H](O)c4ccccc4-c4ccc(Cl)cc4)CC3)cc2)cc1S(=O)(=O)C(F)(F)F [AZD4320] + Cc1cc2ncnn2cc1Nc1ncc2c(n1)n(C1CCOCC1)c(=O)n2C [AZD7648] (first compound max 1 µM, 7x7, partner max 10 µM)", 0.138),
    ("C=CCn1c(=O)c2cnc(Nc3ccc(N4CCN(C)CC4)cc3)nc2n1-c1cccc(C(C)(C)O)n1 [AZD1775] + C[C@@H]1COCCN1C2=NC(=NC(=C2)C3(CC3)[S@](=N)(=O)C)C4=C5C=CNC5=NC=C4 [AZD6738] (first compound max 1 µM, partner max 10 µM)", 0.536),
    ("C=CCn1c(=O)c2cnc(Nc3ccc(N4CCN(C)CC4)cc3)nc2n1-c1cccc(C(C)(C)O)n1 [AZD1775] + O=C(c1cc(Cc2n[nH]c(=O)c3ccccc23)ccc1F)N1CCN(C(=O)C2CC2)CC1 [Olaparib] (first compound max 1 µM, partner max 10 µM)", 0.533),
]

Attention now turns to another entry.
Response field combination Emax (LB771-HNC (Head and Neck Carcinoma)) for item COc1cc2ncnc(Nc3ccc(F)c(Cl)c3)c2cc1OCCCN1CCOCC1 [Gefitinib] + CC(C)n1c(=O)n(C)c2cnc3cc(F)c(-c4ccc(OCCCN5CCCCC5)nc4)cc3c21 [AZD1390] (first compound max 10 µM, 7x7, partner max 0.3 µM) : 0.0839
